The entries below are paired with their reported Kd.
biological target: Biotinylated recombinant human CD3εδ (Acro Biosystems, CDD-H82W6) (human) (UniProt P07766); assay: Octet BLI, biotinylated CD3εδ on streptavidin sensors, 1:1 model
Sequence (P07766 23-126, stated change not applied, chain 1 of 2): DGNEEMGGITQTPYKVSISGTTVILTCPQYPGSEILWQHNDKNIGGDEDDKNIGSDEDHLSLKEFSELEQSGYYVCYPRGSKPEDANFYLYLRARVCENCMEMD
Sequence (P04234 22-105, stated change not applied, chain 2 of 2, further chain): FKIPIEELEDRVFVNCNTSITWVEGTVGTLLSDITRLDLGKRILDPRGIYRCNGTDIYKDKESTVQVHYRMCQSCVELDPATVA
The reply should contain only the number, in nM.

[
  {
    "BINDER": "EGFR-CD3 DuetMab with anti-CD3 variant AZ Vκ 29 + AZ VH R79 (bispecific antibody, part only; not given: anti-EGFR arm, constant regions, V domains shown, not shown: another chain or arm of the molecule; a dimerising Fc or GST; small tags and cut ends) VH: EVQLVESGGALVKPGGSLRLSCAASGFTFTRAWMHWVRQAPGKQLEWVAQIKDRSQTYATYYAESVKGRFTISRDDSKNTLYLQMNSLKTEDTAVYYCRGVYYAVTPFDYWGQGTLVTVSS VL: DIVMTQSPLSLPVTPGEPASISCRSSQSLVHNTGNTYLSWYLQKPGQSPQSLIYKVSNRASGVPDRFSGSGSGTDFTLKISRVEAEDVGVYYCGQGTQFPFTFGSGTKVEIK",
    "NUMERIC VALUE": 878
  },
  {
    "BINDER": "EGFR-CD3 DuetMab with anti-CD3 variant AZ Vκ 29 + AZ VH SN75 (bispecific antibody, part only; not given: anti-EGFR arm, constant regions, V domains shown, not shown: another chain or arm of the molecule; a dimerising Fc or GST; small tags and cut ends) VH: EVQLVESGGALVKPGGSLRLSCAASGFTFSNAWMHWVRQAPGKQLEWVAQIKDRSQTYATYYAESVKGRFTISRDDSKNTLYLQMNSLKTEDTAVYYCRGVYYANAPFDYWGQGTLVTVSS VL: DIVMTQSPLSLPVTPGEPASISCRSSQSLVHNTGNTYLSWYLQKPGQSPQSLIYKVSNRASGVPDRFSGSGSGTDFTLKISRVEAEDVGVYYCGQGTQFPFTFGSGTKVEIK",
    "NUMERIC VALUE": 1010
  },
  {
    "BINDER": "EGFR-CD3 DuetMab with anti-CD3 variant AZ Vκ 17 + AZ VH R82 (bispecific antibody, part only; not given: anti-EGFR arm, constant regions, V domains shown, not shown: another chain or arm of the molecule; a dimerising Fc or GST; small tags and cut ends) VH: EVQLVESGGALVKPGGSLRLSCAASGFTFTRAWMHWVRQAPGKQLEWVAQIKDRSQTYATYYAESVKGRFTISRDDSKNTLYLQMNSLKTEDTAVYYCRGVYYANTPFDYWGQGTLVTVSS VL: DIVMTQSPLSLPVTPGEPASISCRSSQSLVHNTGNTYLSWYLQKPGQSPQSLIYKVSNRASGVPDRFSGSGSGTDFTLKISRVEAEDVGVYYCGQGTQAPFTFGSGTKVEIK",
    "NUMERIC VALUE": 550
  },
  {
    "BINDER": "EGFR-CD3 DuetMab with anti-CD3 variant AZ Vκ 26 + AZ VH E75 (bispecific antibody, part only; not given: anti-EGFR arm, constant regions, V domains shown, not shown: another chain or arm of the molecule; a dimerising Fc or GST; small tags and cut ends) VH: EVQLVESGGALVKPGGSLRLSCAASGFTFTEAWMHWVRQAPGKQLEWVAQIKDRSQTYATYYAESVKGRFTISRDDSKNTLYLQMNSLKTEDTAVYYCRGVYYANAPFDYWGQGTLVTVSS VL: DIVMTQSPLSLPVTPGEPASISCRSSQSLVHNTGNTYLSWYLQKPGQSPQSLIYKVSNRASGVPDRFSGSGSGTDFTLKISRVEAEDVGVYYCGQGTQAPFSFGSGTKVEIK",
    "NUMERIC VALUE": 2280
  }
]

Turning now to a further binder:
Which Kd value is on record for EGFR-CD3 DuetMab with anti-CD3 variant AZ Vκ 17 + AZ VH E75 (bispecific antibody, part only; not given: anti-EGFR arm, constant regions, V domains shown, not shown: another chain or arm of the molecule; a dimerising Fc or GST; small tags and cut ends) VH: EVQLVESGGALVKPGGSLRLSCAASGFTFTEAWMHWVRQAPGKQLEWVAQIKDRSQTYATYYAESVKGRFTISRDDSKNTLYLQMNSLKTEDTAVYYCRGVYYANAPFDYWGQGTLVTVSS VL: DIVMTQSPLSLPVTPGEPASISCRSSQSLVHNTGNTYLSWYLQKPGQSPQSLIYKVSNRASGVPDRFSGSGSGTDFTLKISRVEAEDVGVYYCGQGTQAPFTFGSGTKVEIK ?
2790
